# -log (IC50) values compiled below
tgt: T1, human parathyroid hormone receptor 1, wild-type (hPTHR-1) (human, UniProt Q03431 27-593)
T1 construct: whole, on cells; also called human PTHR-1; PTHR-1-WT
T1 sequence (looked up): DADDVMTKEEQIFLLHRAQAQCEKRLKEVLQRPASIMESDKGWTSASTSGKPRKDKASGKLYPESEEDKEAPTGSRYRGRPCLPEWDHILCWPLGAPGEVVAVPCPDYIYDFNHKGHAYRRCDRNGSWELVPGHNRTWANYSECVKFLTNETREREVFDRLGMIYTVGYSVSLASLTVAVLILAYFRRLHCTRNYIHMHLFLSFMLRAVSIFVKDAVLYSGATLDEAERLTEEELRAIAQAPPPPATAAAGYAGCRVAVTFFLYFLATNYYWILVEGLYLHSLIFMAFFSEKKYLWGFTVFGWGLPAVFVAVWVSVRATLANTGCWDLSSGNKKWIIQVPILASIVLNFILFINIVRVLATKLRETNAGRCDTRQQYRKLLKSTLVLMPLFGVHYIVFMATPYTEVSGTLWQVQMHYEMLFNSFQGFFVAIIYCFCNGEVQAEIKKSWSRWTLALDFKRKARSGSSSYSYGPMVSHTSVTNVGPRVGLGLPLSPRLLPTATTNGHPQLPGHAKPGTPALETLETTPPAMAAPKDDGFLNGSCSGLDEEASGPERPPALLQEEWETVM
protocol_text: R0 state; 125I-PTH(1-34) displacement; COS-7 membranes, hPTHR-1, GTPγS
Non-standard residues stand in square brackets, D forms with d. No end group written: not given here. β3hW = N[C@H](CC(=O)O)Cc1c[nH]c2ccccc12; β3hE = N[C@@H](CCC(=O)O)CC(=O)O; β3hF = N[C@H](CC(=O)O)Cc1ccccc1; β3hK = NCCCC[C@H](N)CC(=O)O; β3hM = CSCC[C@H](N)CC(=O)O; β3hD = NC(CC(=O)O)CC(=O)O
Please reply with the value in numeric form only.

Some entries whose results are on file:
[
  {
    "binder": "SVSEIQLMHNLGKHLNSMERVEWLRKKLQDVQNF-NH2 (not fully specified (residues 20, 24, 28, 32); printed as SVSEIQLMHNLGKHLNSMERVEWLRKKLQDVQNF-NH2; also: five β3 residues, positions not given here in text, also called α/β-peptide B5) [B5]",
    "value_reported": 7.72
  },
  {
    "binder": "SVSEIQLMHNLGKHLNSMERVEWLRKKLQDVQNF-NH2 (not fully specified (residue 32); printed as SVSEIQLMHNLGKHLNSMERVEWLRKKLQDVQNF-NH2; also: three β3 residues, positions not given here in text, also called α/β-peptide B3) [B3]",
    "value_reported": 7.1
  },
  {
    "binder": "SVSEIQLMHNLGK[β3hW]LNS[β3hM]ERV[β3hE]WLR[β3hK]KLQ[β3hD]VHN[β3hF]-NH2 (also called α/β-peptide D6) [D6]",
    "value_reported": 8.69
  }
]

Look up -log (IC50): SVSEIQLMHNLGKWLNSMERVEWLRKKLQDVHNF-NH2 (not fully specified (residue 14); printed as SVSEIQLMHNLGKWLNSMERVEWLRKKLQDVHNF-NH2; also: seven β3 residues, positions not given here in text, also called α/β-peptide D7) [D7]
8.45

Measured values drawn from patent US20140378382A1 for this set.
